# experimental-system: MHC-I D^b (Mus musculus)
# Construct: endogenous in cells; host or cells: RMA/S cells
# Sequence (P01899 25-362): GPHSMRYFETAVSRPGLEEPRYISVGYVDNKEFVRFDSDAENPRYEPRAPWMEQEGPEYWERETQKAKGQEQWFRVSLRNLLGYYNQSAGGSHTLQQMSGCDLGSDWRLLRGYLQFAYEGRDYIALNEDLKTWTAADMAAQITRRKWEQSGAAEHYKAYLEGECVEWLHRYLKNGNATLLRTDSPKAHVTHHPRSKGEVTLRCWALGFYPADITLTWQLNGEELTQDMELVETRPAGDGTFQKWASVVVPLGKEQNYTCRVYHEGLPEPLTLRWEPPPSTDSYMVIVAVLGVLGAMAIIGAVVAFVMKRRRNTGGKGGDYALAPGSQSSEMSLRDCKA
# Sequence (P01887 21-119 partner): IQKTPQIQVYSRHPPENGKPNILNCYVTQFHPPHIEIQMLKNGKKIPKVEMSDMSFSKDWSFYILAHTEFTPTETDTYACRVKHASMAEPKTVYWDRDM
# assay-protocol: RMA/S MHC-I stabilization assay
# condition-notes: RMA/S cells cultured overnight at 26°C, peptide 1 h at RT then 2 h at 37°C; anti-D^b gMFI, percent of maximum; unit inferred; read-out: MHC-I D^b EC50 (MHC-I binding and stabilization)
No end group written: not given here.
outcome-measure: EC50 (nM)
One number for each entry, in nM.

QGINNLDNL [TagV]: 175

Give its EC50 value. Item: MGVANLDNL [LT638]
259
